# Tested on: parent untransformed BaF3 cells
# assay: Tritiated thymidine uptake cell proliferation assay, parental BaF3 (control)
# Format: cell-based
# conditionContext: Mus musculus, 3[H]-thymidine uptake, 72 h, medium with IL-3, read-out: BaF parental IC50
Collected IC50 values appear next to each entry.
Number only, in µM; omit the unit.

smilesStr	unitAbbrev	IC50
O=[N+]([O-])c1cccc(Nc2ccc3c(n2)[nH]c2ccccc23)c1	µM	6.3
O=[N+]([O-])c1ccccc1Nc1ccc2c(n1)[nH]c1ccccc12	µM	44
O=[N+]([O-])c1ccccc1Nc1ccc2c(n1)[nH]c1ccc(/C=C/c3ccccc3)cc12	µM	20
CCN(CC)CCSCC(=O)c1ccc2[nH]c3nc(Cl)ccc3c2c1	µM	5.5

# ---- query compound ----
Q) Fill blank: measured IC50 of the compound `COc1ccc(-c2ccnc3[nH]c4ccccc4c23)cc1` is ____.
A) 15

###

# assayTarget: Recombinant Ret protein (Homo sapiens)
# Sequence (P07949 29-1114): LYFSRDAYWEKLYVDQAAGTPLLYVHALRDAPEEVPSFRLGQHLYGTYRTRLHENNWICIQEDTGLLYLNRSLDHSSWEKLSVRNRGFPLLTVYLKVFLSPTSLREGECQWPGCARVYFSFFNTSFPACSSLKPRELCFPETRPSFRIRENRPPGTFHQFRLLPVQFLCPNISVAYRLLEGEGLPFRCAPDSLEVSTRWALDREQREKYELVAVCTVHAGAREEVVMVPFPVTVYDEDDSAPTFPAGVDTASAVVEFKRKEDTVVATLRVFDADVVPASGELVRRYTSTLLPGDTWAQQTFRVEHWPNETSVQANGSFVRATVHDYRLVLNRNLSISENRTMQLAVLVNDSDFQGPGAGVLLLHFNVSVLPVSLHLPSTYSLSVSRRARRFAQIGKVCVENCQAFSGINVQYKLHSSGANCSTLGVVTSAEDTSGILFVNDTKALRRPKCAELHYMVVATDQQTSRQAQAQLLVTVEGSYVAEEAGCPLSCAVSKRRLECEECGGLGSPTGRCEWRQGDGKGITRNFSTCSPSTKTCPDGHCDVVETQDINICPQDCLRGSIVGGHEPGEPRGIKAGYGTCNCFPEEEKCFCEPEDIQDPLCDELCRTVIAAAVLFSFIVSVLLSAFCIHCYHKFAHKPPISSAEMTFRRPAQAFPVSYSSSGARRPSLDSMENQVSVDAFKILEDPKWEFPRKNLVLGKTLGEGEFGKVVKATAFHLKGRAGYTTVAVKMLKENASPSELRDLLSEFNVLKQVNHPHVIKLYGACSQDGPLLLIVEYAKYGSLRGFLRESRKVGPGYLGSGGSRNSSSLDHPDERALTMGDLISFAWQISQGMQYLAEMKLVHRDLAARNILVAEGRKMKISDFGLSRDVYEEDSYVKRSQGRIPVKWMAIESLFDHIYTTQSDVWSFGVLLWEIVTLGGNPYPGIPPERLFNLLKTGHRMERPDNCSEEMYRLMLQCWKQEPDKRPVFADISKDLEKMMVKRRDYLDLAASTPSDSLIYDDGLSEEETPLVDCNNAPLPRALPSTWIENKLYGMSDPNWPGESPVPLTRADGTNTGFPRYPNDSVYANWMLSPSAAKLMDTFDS
# assay: RET kinase inhibitory activity, ELISA-based in vitro kinase assay
# conditionContext: purified Ret, 0.3 mM ATP
pIC50: −log10 of the molar value.
Record Met whenever pIC50 is at 5 or higher; record Not met when lower.

Q) Can `O=C(CSc1ccccn1)c1ccc2[nH]c3ncccc3c2c1` be said to have pIC50 at or above 5?
A) Not met

Q) Can `C(=C\c1cnc2[nH]c3ccccc3c2c1)/c1ccccc1` be said to have pIC50 at or above 5?
A) Met

Q) Can `O=C(CSc1nc2ccccc2[nH]1)c1ccc2[nH]c3ncc(Cl)cc3c2c1` be said to have pIC50 at or above 5?
A) Not met

Q) Can `C(=C\c1cnc2[nH]c3ccc(-c4ccc(N5CCOCC5)cn4)cc3c2c1)/c1ccccc1` be said to have pIC50 at or above 5?
A) Not met

Q) Can `O=C(CBr)c1ccc2[nH]c3ncccc3c2c1` be said to have pIC50 at or above 5?
A) Not met

Q) Can `O=C(CSc1ccccc1)c1ccc2[nH]c3ncc(Cl)cc3c2c1` be said to have pIC50 at or above 5?
A) Not met

Q) Can `O=Cc1ccc2[nH]c3ncc(Cl)cc3c2c1` be said to have pIC50 at or above 5?
A) Not met

Q) Can `O=c1[nH]c(-c2ccc3[nH]c4ncccc4c3c2)cs1` be said to have pIC50 at or above 5?
A) Not met

Q) Can `C(=C\c1ccc2c(n1)[nH]c1ccccc12)/c1ccccc1` be said to have pIC50 at or above 5?
A) Met

Q) Can `O=C(CSc1nc2ccccc2s1)c1ccc2[nH]c3ncc(Cl)cc3c2c1` be said to have pIC50 at or above 5?
A) Met

###

# assayTarget: Recombinant ALK kinase (Homo sapiens)
# Construct: made in house; host or cells: Sf9 insect cells (baculovirus)
# Sequence (Q9UM73 19-1620): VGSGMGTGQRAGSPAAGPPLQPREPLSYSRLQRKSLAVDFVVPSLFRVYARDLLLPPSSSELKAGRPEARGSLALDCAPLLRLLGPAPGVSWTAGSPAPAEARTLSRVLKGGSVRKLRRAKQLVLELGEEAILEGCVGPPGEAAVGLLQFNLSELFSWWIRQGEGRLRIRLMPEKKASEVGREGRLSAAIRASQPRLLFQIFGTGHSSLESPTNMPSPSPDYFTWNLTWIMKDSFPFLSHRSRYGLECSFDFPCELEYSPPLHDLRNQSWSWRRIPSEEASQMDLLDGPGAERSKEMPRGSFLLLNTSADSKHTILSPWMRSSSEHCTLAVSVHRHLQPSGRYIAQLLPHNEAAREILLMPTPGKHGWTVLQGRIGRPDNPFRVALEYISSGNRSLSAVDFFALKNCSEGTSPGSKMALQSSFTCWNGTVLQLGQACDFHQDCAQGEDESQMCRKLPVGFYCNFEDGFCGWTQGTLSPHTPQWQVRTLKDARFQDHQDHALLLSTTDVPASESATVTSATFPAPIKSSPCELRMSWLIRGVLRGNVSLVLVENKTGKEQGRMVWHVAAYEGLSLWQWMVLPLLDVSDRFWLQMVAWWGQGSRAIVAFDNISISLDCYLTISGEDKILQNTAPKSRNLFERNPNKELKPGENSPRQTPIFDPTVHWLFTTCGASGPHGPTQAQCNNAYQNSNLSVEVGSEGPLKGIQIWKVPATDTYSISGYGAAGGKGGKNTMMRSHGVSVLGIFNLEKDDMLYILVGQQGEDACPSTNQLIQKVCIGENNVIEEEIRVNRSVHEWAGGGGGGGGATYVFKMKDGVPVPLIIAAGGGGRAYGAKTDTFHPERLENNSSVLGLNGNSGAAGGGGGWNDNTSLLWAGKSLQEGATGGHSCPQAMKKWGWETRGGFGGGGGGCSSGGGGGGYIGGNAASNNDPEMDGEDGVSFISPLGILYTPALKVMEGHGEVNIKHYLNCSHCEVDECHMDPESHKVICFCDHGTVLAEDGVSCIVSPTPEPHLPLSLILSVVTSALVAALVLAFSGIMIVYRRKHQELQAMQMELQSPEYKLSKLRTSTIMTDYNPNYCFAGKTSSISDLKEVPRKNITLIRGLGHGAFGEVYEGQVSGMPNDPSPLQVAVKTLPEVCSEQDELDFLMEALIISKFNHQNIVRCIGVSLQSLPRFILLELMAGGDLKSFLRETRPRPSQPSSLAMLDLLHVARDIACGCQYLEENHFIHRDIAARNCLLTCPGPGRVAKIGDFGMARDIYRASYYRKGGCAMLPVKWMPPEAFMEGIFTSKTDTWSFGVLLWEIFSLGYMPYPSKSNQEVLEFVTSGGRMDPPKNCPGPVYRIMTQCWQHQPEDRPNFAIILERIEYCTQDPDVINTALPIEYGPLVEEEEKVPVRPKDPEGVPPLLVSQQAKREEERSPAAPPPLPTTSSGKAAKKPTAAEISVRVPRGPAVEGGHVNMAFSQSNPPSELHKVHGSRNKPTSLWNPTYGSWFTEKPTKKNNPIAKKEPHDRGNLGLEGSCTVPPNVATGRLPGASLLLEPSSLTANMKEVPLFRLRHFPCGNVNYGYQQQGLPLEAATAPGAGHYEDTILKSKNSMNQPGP
# assay: ALK kinase inhibitory activity, ELISA-based in vitro kinase assay
# Assay type: biochemical
# conditionContext: repeated determinations, 1st, read-out: ALK IC50, 1st determination
Collected IC50 values appear next to each entry.
Number only, in µM; omit the unit.

molecule	assayTarget	unitAbbrev	IC50
Clc1cnc2[nH]c3ccc(CCc4ccccc4)cc3c2c1 [R351]	Recombinant ALK kinase (Homo sapiens)	µM	66

Q) Fill blank: measured IC50 of the molecule COc1ccc(/C=C/c2ccc3[nH]c4ncc(Cl)cc4c3c2)cc1 [R350] is ____.
A) 5.1

Q) Fill blank: measured IC50 of the molecule COc1cccc(Nc2cnc3[nH]c4ccc(CCc5ccccc5)cc4c3c2)c1 [R352] is ____.
A) 19

src = patent US8895744B2
